meta.source: paper PMC6949295

B1: Exo70 wild type, HA-tagged and Flag-tagged copies co-expressed [rat] / itself (parent)
chain: MIPPQEASARRREIEDKLKQEEETLSFIRDSLEKSDQLTKNMVSILSSFESRLMKLENSIIPVHKQTENLQRLQENVEKTLSCLDHVISYYHVASDTEKIIREGPTGRLEEYLGSMAKIQKAVEYFQDNSPDSPELNKVKLLFERGKESLESEFRSLMTRHSKVISPVLVLDLISADDELEVQEDVVLEHLPESVLQDVIRISRWLVEYGRNQDFMNVYYQIRSSQLDRSIKGLKEHFRKSSSSSGVPYSPAIPNKRKDTPTKKPIKRPGRDDMLDVETDAYIHCVSAFVRLAQSEYQLLMGIIPEHHQKKTFDSLIQDALDGLMLEGENIVSAARKAIIRHDFSTVLTVFPILRHLKQTKPEFDQVLQGTAASTKNKLPGLITSMETIGAKALEDFADNIKNDPDKEYNMPKDGTVHELTSNAILFLQQLLDFQETAGAMLASQETSSSATSYNSEFSKRLLSTYICKVLGNLQLNLLSKSKVYEDPALSAIFLHNNYNYILKSLEKSELIQLVAVTQKTAERSYREHIEQQIQTYQRSWLKVTDYIAEKNLPVFQPGVKLRDKERQMIKERFKGFNDGLEELCKIQKAWAIPDTEQRDKIRQAQKSIVKETYGAFLHRYSSVPFTKNPEKYIKYRVEQVGDMIDRLFDTSA

Variants of: B1
assay.comment: co-immunoprecipitation (IP: HA, blot: Flag)
test.context: with itself; 293T cells; parent: 1
measure: response (relative band intensity)

Record excerpt, results attached:
{"columns": ["variant.identifier", "measure", "observed.result"],
 "data": [
  ["chain 1 S47D S89D", "response (relative band intensity)", 0.18],
  ["chain 1 S89D", "response (relative band intensity)", 0.46],
  ["chain 1 S59D S89D", "response (relative band intensity)", 0.41]
]}

Next variant, response (relative band intensity) to be filled in.
Recorded response (relative band intensity) of chain 1 S47D S59D S89D , please. 0.03
